Below: a set of entries, each annotated with reported pIC50.
system: B cell; experiment: B cell diff. (Table 4, method not given); format: cell-based; settings: B-cell
pIC50: −log10 of the molar value.

| compound | pIC50 |
| --- | --- |
| Cc1ccc2cc1CNC(=O)[C@H](CCc1ccccc1)NC(=O)[C@@H](N1C(=O)CCC1=O)CC(=O)N1CCCC(CCO2)C1 (stereo partly drawn) [Compound 43] | > 7.00 |
| Cc1ccc2cc1CNC(=O)[C@H](CCc1ccccc1)NC(=O)[C@@H](NC(=O)C(C)(C)C)CC(=O)N1CCCC(CCO2)C1 (stereo partly drawn) [Compound 27] | > 7.00 |
| Cc1ccc2cc1CNC(=O)[C@H](CCc1ccccc1)NC(=O)[C@@H](Nc1ncccn1)CC(=O)N1CCCC(CCO2)C1 (stereo partly drawn) [Compound 34] | > 7.00 |

----------
Below, each entry is listed with its recorded IC50.
test system: Karpas cells; test: Glo assay of Karpas cells (Table 3; ProteasomeGlo plating scheme); assay type: cell-based; conditions: read-out: Pglo Karpas

| compound | IC50 |
| --- | --- |
| Cc1ccc2cc1CNC(=O)[C@H](CCc1ccccc1)NC(=O)[C@@H](NC(=O)Cc1ccccc1C)CC(=O)N1CCCC(CCO2)C1 (stereo partly shown) [Compound 373] | < 0.1 µM |
| Cc1ccc2cc1CNC(=O)[C@H](CCc1ccccc1)NC(=O)[C@@H](N)CC(=O)N1CCCC(CCO2)C1 (stereo partly shown) [Compound 8] | < 0.1 µM |
| COc1ccc(CC(=O)N[C@H]2CC(=O)N3CCCC(CCOc4ccc(C)c(c4)CNC(=O)[C@H](CCc4ccccc4)NC2=O)C3)cc1 (stereo partly shown) [Compound 83] | < 0.1 µM |
| Cc1ccc2cc1CNC(=O)[C@H](Cc1ccccc1)NC(=O)CCC(=O)N1CCCC(CCO2)C1 (stereo partly shown) [Compound 79] | 0.5 to 1 µM |

----------
molecular target: β5 subunit of the human immunoproteasome (IPS) (Homo sapiens); experiment: β5 inhibition assay, human immunoproteasome (Suc-LLVY-AMC); settings: IC50 class, Suc-LLVY-AMC substrate
observable: IC50

| compound | result |
| --- | --- |
| CC(=O)N[C@H]1CC(=O)N2CCCC(CCOc3ccc(C)c(c3)CNC(=O)C(c3coc(C)n3)NC1=O)C2 (stereo partly drawn) [Compound 553] | < 100 nM |
| Cc1ccc2cc1CNC(=O)[C@H](CCc1ccccc1)NC(=O)[C@@H](NC(=O)C1(CO)CCNCC1)CC(=O)N1CCCC(CCO2)C1 (stereo partly drawn) [Compound 730] | < 100 nM |
| Cc1ccc2cc1CNC(=O)[C@H](CCc1ccccc1)NC(=O)[C@@H](NC(=O)c1ccccc1)CC(=O)N1CCCC(CCO2)C1 (stereo partly drawn) [Compound 26] | < 100 nM |
| Cc1ccc2cc1CNC(=O)[C@H](CCc1ccccc1)NC(=O)[C@@H](NC(=O)CCOCC1CC3(CCC3)C1)CC(=O)N1CCCC(CCO2)C1 (stereo partly drawn) [Compound 615] | < 100 nM |
| CC(=O)N[C@H]1CCC(=O)N2CCC2(C)COc2ccc(C)c(c2)CNC(=O)[C@H](CCc2ccccc2)NC1=O (stereo partly drawn) [Compound 265] | 100 to 500 nM |
| Cc1ccc2cc1CNC(=O)[C@H](CCc1ccccc1)NC(=O)[C@@H](NC(=O)Cc1cnc(N)s1)CC(=O)N1CCCC(CCO2)C1 (stereo partly drawn) [Compound 311] | < 100 nM |
